Origin of measurements: paper PMC9826232

molecular target: K‐Ras(G12D) (Homo sapiens, UniProt P01116, G12D); experiment: Nucleotide exchange assay
Sequence (P01116 1-188 isoform P01116-2 G12D): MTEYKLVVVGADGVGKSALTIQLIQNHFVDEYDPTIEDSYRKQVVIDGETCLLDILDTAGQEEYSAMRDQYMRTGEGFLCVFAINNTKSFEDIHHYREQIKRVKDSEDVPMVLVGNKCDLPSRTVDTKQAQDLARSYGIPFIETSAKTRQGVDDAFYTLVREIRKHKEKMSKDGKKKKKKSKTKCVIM
pIC50: −log10 of the molar value.
Outcome: 1 (yes) for pIC50 of at least 3; 0 (no) for anything lower.

# MOLECULE, TESTED TARGET, ASSIGNED CATEGORY
measured = [
    ("O=[N+]([O-])c1ccc(NN=C(c2ccc(O)cc2)c2ccc(O)cc2)c([N+](=O)[O-])c1 [7 a]", "K‐Ras(G12D) (Homo sapiens, UniProt P01116, G12D)", "1 (yes)"),
    ("O=S(=O)(NN=C(c1ccc(O)cc1)c1ccc(O)cc1)c1ccc(Cl)cc1 [8 c]", "K‐Ras(G12D) (Homo sapiens, UniProt P01116, G12D)", "1 (yes)"),
    ("N#Cc1ccc(S(=O)(=O)NN=C(c2ccc(O)cc2)c2ccc(O)cc2)cc1 [8 g]", "K‐Ras(G12D) (Homo sapiens, UniProt P01116, G12D)", "0 (no)"),
    ("Oc1ccc(C(=NNc2ccc(F)cc2)c2ccc(O)cc2)cc1 [7 c]", "K‐Ras(G12D) (Homo sapiens, UniProt P01116, G12D)", "1 (yes)"),
    ("Oc1ccc(C(=NNc2ccccn2)c2ccc(O)cc2)cc1 [7 f]", "K‐Ras(G12D) (Homo sapiens, UniProt P01116, G12D)", "0 (no)"),
    ("COc1ccc(S(=O)(=O)NN=C(c2ccc(O)cc2)c2ccc(O)cc2)cc1 [8 b]", "K‐Ras(G12D) (Homo sapiens, UniProt P01116, G12D)", "0 (no)"),
    ("O=[N+]([O-])c1ccc(S(=O)(=O)NN=C(c2ccc(O)cc2)c2ccc(O)cc2)cc1 [8 e]", "K‐Ras(G12D) (Homo sapiens, UniProt P01116, G12D)", "1 (yes)"),
    ("Oc1ccc(C(=NNc2ccc(C(F)(F)F)cc2)c2ccc(O)cc2)cc1 [7 e]", "K‐Ras(G12D) (Homo sapiens, UniProt P01116, G12D)", "1 (yes)"),
]
